Target: T1, human LILRB2 expressed on cells (293T-LILRB2, CHO-K1-LILRB2) (human, UniProt Q8N423 22-597)
T1 construct: whole, on cells; the cell line is named under assay; also called HEK293T-LILRB2
T1 sequence (Q8N423 22-597): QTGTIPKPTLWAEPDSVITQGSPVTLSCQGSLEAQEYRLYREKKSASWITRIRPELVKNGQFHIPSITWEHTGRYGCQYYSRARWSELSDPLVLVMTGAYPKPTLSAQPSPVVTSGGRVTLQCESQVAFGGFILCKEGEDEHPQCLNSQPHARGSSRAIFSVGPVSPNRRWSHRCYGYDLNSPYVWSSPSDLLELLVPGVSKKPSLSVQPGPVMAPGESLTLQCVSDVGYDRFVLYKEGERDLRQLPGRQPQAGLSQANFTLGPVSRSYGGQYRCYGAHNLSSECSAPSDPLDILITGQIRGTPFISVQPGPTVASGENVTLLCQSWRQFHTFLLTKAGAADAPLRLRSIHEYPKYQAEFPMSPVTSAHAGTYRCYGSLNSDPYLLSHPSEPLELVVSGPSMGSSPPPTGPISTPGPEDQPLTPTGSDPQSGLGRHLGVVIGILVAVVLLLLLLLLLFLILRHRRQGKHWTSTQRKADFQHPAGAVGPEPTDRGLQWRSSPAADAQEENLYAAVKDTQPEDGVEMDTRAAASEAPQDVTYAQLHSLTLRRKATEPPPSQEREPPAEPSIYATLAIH
Experiment: flow cytometry on 293T-LILRB2 cells, serial dilution, APC anti-human IgG; fit table under the graph
Recorded pKd for the following binders
Schema: pKd number; meaning minus log10 of the concentration expressed in molar units.

Q: Which pKd reading was recorded for the binder Antibody h#2B1 (antibody, V domains shown, Humanized variant of 11B12) VH: EVQLVESGGGLVQPGGSLRLSCAVSGYSITSGYYWNWIRQAPGKGLEWVAYISYDGNNNYNPSLKNRFTISRDASKNTVYLQMNSLRAEDTAVYYCAREESTMITTAWFAYWGQGTLVTVSS VL: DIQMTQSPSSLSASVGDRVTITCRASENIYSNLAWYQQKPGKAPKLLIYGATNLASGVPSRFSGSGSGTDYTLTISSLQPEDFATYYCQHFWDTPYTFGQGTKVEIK ?
Ans: 9.59

Q: Now give it for Antibody h#2E2 (antibody, V domains shown, Humanized variant of 11B12) VH: EVQLVESGGGLVQPGGSLRLSCAVSGYSITSGYYWNWIRQAPGKGLEWVAYISYDGNNNYNPSLKNRFTISRDTSKNTVYLQMNSLRAEDTAVYYCAREESTMITTAWFAYWGQGTLVTVSS VL: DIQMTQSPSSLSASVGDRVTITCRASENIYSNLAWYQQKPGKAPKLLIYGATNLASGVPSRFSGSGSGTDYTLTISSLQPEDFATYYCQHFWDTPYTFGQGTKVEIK too.
Ans: 9.50

Q: Ok, now chimeric 11B12 (antibody, V domains shown) VH: DVQLQESGPGLVKPSQSLSLTCSVTGYSITSGYYWNWIRQFPGNKLEWMGYISYDGNNNYNPSLKNRISITRDTSKNQFFLKLNSVTTEDTATYYCAREESTMITTAWFAYWGQGTLVTVSA VL: DIQMTQSPASLSVSVGETVTITCRASENIYSNLAWYQQKQGKSPQLLVYGATNLADGVPSRFSGSGSGTQYSLKINSLQSEDFGSYFCQHFWDTPYTFGGGTKLEIK
Ans: 9.77

Q: And Antibody h#2E1 (antibody, V domains shown, Humanized variant of 11B12; detected with anti-human IgG) VH: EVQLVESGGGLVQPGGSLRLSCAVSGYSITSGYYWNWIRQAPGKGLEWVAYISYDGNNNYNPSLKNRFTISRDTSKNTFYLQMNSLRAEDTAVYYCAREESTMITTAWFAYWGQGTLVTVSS VL: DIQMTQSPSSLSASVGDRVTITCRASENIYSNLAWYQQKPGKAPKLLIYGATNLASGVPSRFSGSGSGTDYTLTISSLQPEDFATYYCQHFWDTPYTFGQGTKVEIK ?
Ans: 9.79
